Molecular target: BCRP (breast cancer resistance protein) (Homo sapiens, UniProt Q9UNQ0)
Construct: gene ABCG2; endogenous transporter in Caco-2 cell monolayers
Sequence (Q9UNQ0 whole entry): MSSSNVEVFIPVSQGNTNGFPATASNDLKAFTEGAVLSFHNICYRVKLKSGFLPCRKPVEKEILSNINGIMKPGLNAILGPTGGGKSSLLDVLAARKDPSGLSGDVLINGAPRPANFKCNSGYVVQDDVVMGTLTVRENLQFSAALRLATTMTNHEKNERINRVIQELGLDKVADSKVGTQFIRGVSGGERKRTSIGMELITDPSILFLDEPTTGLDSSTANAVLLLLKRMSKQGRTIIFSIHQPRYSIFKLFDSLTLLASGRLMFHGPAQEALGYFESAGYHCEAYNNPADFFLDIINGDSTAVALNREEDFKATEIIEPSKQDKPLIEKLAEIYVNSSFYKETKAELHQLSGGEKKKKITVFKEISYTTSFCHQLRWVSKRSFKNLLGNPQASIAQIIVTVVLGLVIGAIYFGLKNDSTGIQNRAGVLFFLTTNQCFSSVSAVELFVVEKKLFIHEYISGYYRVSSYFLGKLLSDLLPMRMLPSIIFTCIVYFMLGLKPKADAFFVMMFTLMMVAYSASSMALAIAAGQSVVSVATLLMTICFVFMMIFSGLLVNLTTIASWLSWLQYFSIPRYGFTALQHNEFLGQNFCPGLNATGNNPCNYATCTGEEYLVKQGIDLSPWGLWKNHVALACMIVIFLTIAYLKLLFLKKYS
Experiment: transport inhibition in Caco-2 monolayers
Format: cell-based
Description: transport inhibition in Caco-2 monolayers on BCRP (breast cancer resistance protein)
measure_name: pIC50
Note: pIC50 values are expressed as the negative base-10 logarithm of concentration in M.

Task: Quick check: pIC50 of `COC[C@H]1CN(C(=O)[C@]2(F)CN(C3CCCC3)C[C@H]2c2ccc(OC)cc2)C[C@@H]1c1ccc(C(F)(F)F)cc1N1CCC(C(=O)O)CC1` ?
Result: 6.33

* * *

molecular target: MATE2‐K (Homo sapiens); experiment: uptake inhibition in HEK293 cells expressing the transporter
Sequence (Q86VL8 1-566 isoform Q86VL8-3): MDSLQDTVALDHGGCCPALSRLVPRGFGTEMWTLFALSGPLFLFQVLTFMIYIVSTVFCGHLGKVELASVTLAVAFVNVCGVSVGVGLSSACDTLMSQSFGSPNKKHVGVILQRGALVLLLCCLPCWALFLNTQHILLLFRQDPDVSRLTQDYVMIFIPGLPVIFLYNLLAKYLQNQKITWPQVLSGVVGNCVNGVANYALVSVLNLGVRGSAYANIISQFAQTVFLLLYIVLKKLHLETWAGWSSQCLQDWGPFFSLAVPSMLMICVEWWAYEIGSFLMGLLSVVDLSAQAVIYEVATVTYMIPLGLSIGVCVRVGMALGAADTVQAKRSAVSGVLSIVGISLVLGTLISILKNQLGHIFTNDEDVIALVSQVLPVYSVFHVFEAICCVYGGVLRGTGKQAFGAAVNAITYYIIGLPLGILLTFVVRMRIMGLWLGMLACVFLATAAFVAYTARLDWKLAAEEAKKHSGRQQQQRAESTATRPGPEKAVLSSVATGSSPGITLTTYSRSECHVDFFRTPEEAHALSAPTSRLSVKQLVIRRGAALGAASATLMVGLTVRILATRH
pIC50: −log10 of the molar value.
measure_name: pIC50

Task: What value of pIC50 on MATE2‐K (Homo sapiens) does COC[C@H]1CN(C(=O)[C@]2(F)CN(C3CCCC3)C[C@H]2c2ccc(OC)cc2)C[C@@H]1c1ccc(C(F)(F)F)cc1N1CCC(C(=O)O)CC1 [dersimelagon] have?
Result: < 4.56

* * *

Target: UGT1A3 (Homo sapiens, UniProt P35503)
Construct: native enzyme in human liver microsomes
Sequence (P35503 29-534): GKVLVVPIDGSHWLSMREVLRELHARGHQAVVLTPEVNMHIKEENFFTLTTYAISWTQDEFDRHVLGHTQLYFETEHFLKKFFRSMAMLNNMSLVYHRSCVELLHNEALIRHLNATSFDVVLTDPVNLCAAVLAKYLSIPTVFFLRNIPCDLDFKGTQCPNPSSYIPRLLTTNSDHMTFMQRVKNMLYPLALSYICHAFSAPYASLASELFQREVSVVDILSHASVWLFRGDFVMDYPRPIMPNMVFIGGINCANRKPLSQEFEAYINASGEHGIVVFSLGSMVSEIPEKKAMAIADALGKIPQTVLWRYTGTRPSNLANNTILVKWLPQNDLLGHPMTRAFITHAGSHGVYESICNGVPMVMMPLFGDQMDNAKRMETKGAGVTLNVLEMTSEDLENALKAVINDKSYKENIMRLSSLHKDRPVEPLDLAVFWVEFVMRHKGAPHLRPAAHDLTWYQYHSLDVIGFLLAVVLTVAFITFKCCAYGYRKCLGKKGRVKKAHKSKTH
Experiment: glucuronidation inhibition in human liver microsomes
Format: biochemical
Conditions: substrate chenodeoxycholic acid; direct inhibition
measure_name: IC50 (µM)
Numeric only. Scale: µM

Task: For the molecule shown here, COC[C@H]1CN(C(=O)[C@]2(F)CN(C3CCCC3)C[C@H]2c2ccc(OC)cc2)C[C@@H]1c1ccc(C(F)(F)F)cc1N1CCC(C(=O)O)CC1 [dersimelagon] , give the reported IC50.
Result: 22.6
